Target: Hypoxia-inducible factor 1-alpha (Homo sapiens, UniProt Q16665)
Sequence (Q16665 whole entry): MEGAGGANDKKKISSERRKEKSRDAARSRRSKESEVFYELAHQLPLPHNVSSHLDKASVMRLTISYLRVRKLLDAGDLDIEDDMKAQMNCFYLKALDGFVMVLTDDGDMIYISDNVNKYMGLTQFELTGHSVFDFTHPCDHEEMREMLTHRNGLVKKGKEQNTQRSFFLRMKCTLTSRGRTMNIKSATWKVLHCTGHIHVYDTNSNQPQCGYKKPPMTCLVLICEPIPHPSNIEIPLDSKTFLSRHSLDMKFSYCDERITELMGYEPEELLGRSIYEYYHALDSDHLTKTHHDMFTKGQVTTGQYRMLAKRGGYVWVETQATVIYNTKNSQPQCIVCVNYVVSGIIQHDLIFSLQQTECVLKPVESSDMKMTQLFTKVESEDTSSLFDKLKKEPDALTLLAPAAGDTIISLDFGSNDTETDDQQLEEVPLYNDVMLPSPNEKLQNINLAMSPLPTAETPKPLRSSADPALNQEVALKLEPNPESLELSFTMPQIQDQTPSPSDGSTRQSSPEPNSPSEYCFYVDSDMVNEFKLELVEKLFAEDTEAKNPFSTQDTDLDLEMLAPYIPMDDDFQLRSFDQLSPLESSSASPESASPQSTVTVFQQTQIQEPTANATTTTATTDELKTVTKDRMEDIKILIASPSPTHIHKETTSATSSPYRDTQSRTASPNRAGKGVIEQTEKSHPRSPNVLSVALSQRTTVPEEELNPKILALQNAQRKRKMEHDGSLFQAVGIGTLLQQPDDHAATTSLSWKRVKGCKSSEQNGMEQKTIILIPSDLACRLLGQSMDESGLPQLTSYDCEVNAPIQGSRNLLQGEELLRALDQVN
Experiment: Inhibition of hypoxia-induced HIF1alpha transcriptional activity in human Hep3B cells co-transfected with luciferase reporter plasmid containing six copies of HREs and pRL-CMV vector assessed as reduction in luciferase activity incubated for 24 hrs under hypoxic condition by HRE-dependent dual luciferase reporter gene assay
Readout Type: pIC50
// pIC50 here means minus log10 of the molar concentration (mol/L)

## Input Entry Cc1ccc(/C=C2\C[C@]3(C)[C@H]4C[C@@H](O)[C@@H]5[C@@H]([C@@]6(C)CCCC(C)(C)O6)CC[C@@]5(C)[C@]4(C)CC[C@H]3C(C)(C)\C2=N\NC(N)=O)cc1 : reported pIC50 = ?
## Output 5.01

## Input Bench note: what pIC50 did CC1(C)CCC[C@](C)([C@H]2CC[C@]3(C)[C@@H]2[C@H](O)C[C@@H]2[C@@]4(C)CC(=C\c5cccc(F)c5)/C(=N\NC(N)=O)C(C)(C)[C@@H]4CC[C@]23C)O1 show?
## Output 5.46

## Input Please give the measured pIC50 for this compound: Cc1ccc(N/N=C2\CC[C@]3(C)[C@H]4C[C@@H](O)[C@@H]5[C@@H]([C@@]6(C)CCCC(C)(C)O6)CC[C@@]5(C)[C@]4(C)CC[C@H]3C2(C)C)cc1
## Output 5.15

## Input Reported pIC50, compound CC1(C)CCC[C@](C)([C@H]2CC[C@]3(C)[C@@H]2[C@H](OC(=O)Cn2nnnc2-c2ccc(Cl)cc2)C[C@@H]2[C@@]4(C)CCC(=O)C(C)(C)[C@@H]4CC[C@]23C)O1 : ____
## Output 4.91

* * *

Molecular target: Hypoxia-inducible factor 1-alpha (Homo sapiens)
Assay: Inhibition of hypoxia-induced HIF1alpha transcriptional activity in human Hep3B cells co-transfected with luciferase reporter plasmid containing six copies of HREs and pRL-CMV vector assessed as reduction in luciferase activity incubated for 24 hrs under hypoxic condition by HRE-dependent dual luciferase reporter gene assay
pIC50: −log10 of the molar value.
pIC50: recorded values

Previously resolved entries follow.
smiles_data=CC1(C)CCC[C@](C)([C@H]2CC[C@]3(C)[C@@H]2[C@H](O)C[C@@H]2[C@@]4(C)CC/C(=N\Nc5ccccc5Cl)C(C)(C)[C@@H]4CC[C@]23C)O1 endpoint_result="< 4.00"
smiles_data=CC1(C)CCC[C@](C)([C@H]2CC[C@]3(C)[C@@H]2[C@H](OC(=O)CNc2cccc(-c4nnn[nH]4)c2)C[C@@H]2[C@@]4(C)CCC(=O)C(C)(C)[C@@H]4CC[C@]23C)O1 endpoint_result="< 4.00"

Next molecule, please.
## Input Looking for the measured pIC50 of CC1(C)CCC[C@](C)([C@H]2CC[C@]3(C)[C@@H]2[C@H](O)C[C@@H]2[C@@]4(C)CC(=C\c5ccc(Cl)cc5)/C(=N\NC(N)=S)C(C)(C)[C@@H]4CC[C@]23C)O1 , can you help?
## Output < 4.00
